assay: NCI Yeast Anticancer Drug Screen. Data for the rad14 strain (AID 159);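 further: 0% = growth of vehicle-treated control cultures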; conditions: S. cerevisiae rad14 strain growth inhibition; at 33.0 µM; stronger effect = higher value
Compounds without any hit were thinned out: in the full panel of roughly 79,000, 15% have a hit.
growth inhibition values, listed per item

Compound | growth inhibition / %
C[CH2][Sn]([CH2]C)([O]S(C)(=O)=O)[O]S(C)(=O)=O | -10
CCC1(O)C(=O)OCc2c1cc1n(c2=O)Cc2cc3cc(Cl)ccc3nc2-1 (stereo not given) | 59
CC1CC(C)CC(C)C(O)/C(C#N)=C/C=C/CC(C2CCCC2C(=O)O)OC(=O)CC(O)C(C)C1 (stereo not given) | 99
Oc1ccc(Cl)cc1Cc1ccccc1 | 99
O=C1OC2C(O1)C1(Cl)C(Cl)=C(Cl)C2(Cl)C1(Cl)Cl (stereo not given) | -7
